Source listed as ChEMBL document CHEMBL1157539.

System: Plasmodium falciparum
Experiment: GSK_TCMDC: Inhibition of Plasmodium falciparum Dd2 in whole red blood cells, using parasite LDH activity as an index of growth. Test compounds present at 2uM
Type: functional
Rule: Inhibition below 80% gives fulfilled. Equal to or above 80% gives not fulfilled.

Observe how each entry below is paired with its result.
compound=Clc1ccc(OCc2ccccc2)c(-c2nc(-c3nc4ccc(Cl)cc4[nH]3)cs2)c1 measurement_target="Plasmodium falciparum" group_label=fulfilled
compound=COc1cc2nc(N3CCC(CNC(=O)c4ccc(-c5cccc(C#N)c5)cc4)CC3)nc(N)c2cc1OC measurement_target="Plasmodium falciparum" group_label="not fulfilled"
compound="Cc1cc(F)ccc1-c1nc(NCC(O)CNCCc2ccccc2)nc2c1ccc(=O)n2-c1c(F)cccc1F.O=C(O)C(F)(F)F (centres undefined)" measurement_target="Plasmodium falciparum" group_label="not fulfilled"
compound=CN(C)CCOc1cc(NC(=O)Nc2cccc([N+](=O)[O-])c2)ccc1I measurement_target="Plasmodium falciparum" group_label=fulfilled
compound=CCC(CC)n1c(COC)cc2c3c(N)nc(N)nc3ccc21 measurement_target="Plasmodium falciparum" group_label=fulfilled

Hi there! Is Inhibition for Oc1ccc2[nH]cc(C3CCN(CCCCCCCCCN4CCC(c5c[nH]c6ccc(O)cc56)CC4)CC3)c2c1 below 80%, do you know? fulfilled

Hi there! Is Inhibition for CC1CCCCC1N(C)C1CCN(CCCNC(=O)C=Cc2ccc(Cl)cc2Cl)CC1 (centres undefined) below 80%, do you know? fulfilled
